Numbers sourced from PubChem BioAssay (NCI).

Tested on: NCI-H226 lung
TEST DESCRIPTION: NCI-60 one-dose screen, 48 h (100 = growth as untreated, 0 = no growth, -100 = all killed)
ASSAY CONTEXT: 10 µM unless noted
About 83,000 compounds went through this panel and 20% of them were active in at least one assay; those are over-represented in the sample as a whole.
MEASURED PROPERTY: growth (%)
Give your result in % as a bare value.

# example entries with known answers
[[record]]
compound = "CCCCN(CCCC)CC(O)c1ccc(OCc2ccccc2)c2ccccc12 (centres undefined)"
quantitative_result = 104

[[record]]
compound = "CC[C@@H]1NC(=O)[C@@H]2CCCCN2C(=O)[C@@H]2CCCN2C(=O)[C@@H](NC(=O)[C@H](Cc2cc(F)cc(F)c2)NC(=O)Nc2ccc(C3CC3)cc2F)[C@H](C)OC(=O)[C@@H]2C[C@@H](C)CN2C1=O"
quantitative_result = 15.5

[[record]]
compound = "O=C(CSc1nccc(Nc2ccc(S(=O)(=O)Nc3ccccn3)cc2)n1)c1ccc(Cl)cc1"
quantitative_result = 89


Now, please, on to the next compound.
Specify growth for CCC(Br)(CC)C(=O)c1ccc(OCC(=O)O)c(Cl)c1Cl and stop.
87.4

----------
Tested on: UO-31 renal
TEST DESCRIPTION: NCI-60 one-dose screen, 48 h
ASSAY CONTEXT: 10 µM unless noted
Compounds without any hit were thinned out: in the full panel of roughly 83,000, 20% have a hit. Activity calls are given as the source filed them. How the source made its calls: active means growth percent below 10; inactive means the rest.
Use one of these outcomes when replying: active, inactive

// below: answered compounds
[[record]]
compound = "O=C(Nc1cc(F)cc2cccnc12)c1cnc(N2CCNCC2)cn1"
assigned_label = "inactive"

[[record]]
compound = "CCn1cc(-c2[nH]c(=S)ncc2-c2ccc(Cl)cc2)c(-c2ccc(Br)cc2)n1"
assigned_label = "inactive"

[[record]]
compound = "O=C(O)c1cc([N+](=O)[O-])ccc1Br"
assigned_label = "inactive"

[[record]]
compound = "C[C@H]1[C@H](C)CC[C@]2(C(=O)O)CC[C@]3(C)C(=CC[C@@H]4[C@@]5(C)C/C(=C/c6cccnc6)[C@H](O)C(C)(C)[C@@H]5CC[C@]43C)[C@H]12"
assigned_label = "active"

[[record]]
compound = "COc1cc(-c2nc(SCCC(C)C)nc(Nc3ccccc3)c2C#N)cc(OC)c1OC"
assigned_label = "inactive"


I'd appreciate the recorded outcome for C=C(C)[C@@H]1CC[C@]2(C(=O)N3CCN(C)CC3)CC[C@]3(C)[C@H](CC[C@@H]4[C@@]5(C)C/C(=C/c6ccncc6)[C@H](O)C(C)(C)[C@@H]5CC[C@]43C)[C@@H]12 from this test.
active

I'd appreciate the recorded outcome for CC(C)C1=NOC(=O)C1=Cc1cn(-c2cccnc2)nc1-c1ccccc1 from this test.
inactive

I'd appreciate the recorded outcome for O=C1Nc2ccccc2/C1=C/C(=O)c1ccc(N2CCCCC2)cc1 from this test.
inactive

I'd appreciate the recorded outcome for CCOC(=O)CC(c1ccccc1)C(C#N)c1ccccc1 (stereo not drawn) from this test.
inactive

I'd appreciate the recorded outcome for CC(C)=CCC[C@](C)(O)[C@H]1CC[C@]2(C)[C@@H]1CC[C@@H]1[C@@]3(C)CC/C(=N/O)C(C)(C)[C@@H]3CC[C@]12C from this test.
active

I'd appreciate the recorded outcome for CC[C@]12C=CCN3CC[C@@]4(c5ccc(OC)cc5N(C)[C@H]4[C@@](O)(C(=O)OC)[C@@H]1OC(=O)CCC(=O)N[C@H](Cc1c[nH]c4ccccc14)C(=O)OC)[C@@H]32 from this test.
active

I'd appreciate the recorded outcome for NS(=O)(=O)c1ccc(CCN2C(=O)/C(=C\c3ccccc3)C=C2c2ccc(Cl)cc2)cc1 from this test.
inactive

I'd appreciate the recorded outcome for c1ccc(-c2n[nH]c(-c3ccccn3)n2)nc1 from this test.
inactive

I'd appreciate the recorded outcome for Cc1ccc(S(=O)(=O)Oc2ccc(Br)cc2Br)cc1 from this test.
inactive

I'd appreciate the recorded outcome for Cc1cc(C)c(O)c(CNCCCNCc2cc(C)cc(C)c2O)c1 from this test.
inactive

I'd appreciate the recorded outcome for CCCn1ccnc1C(O)c1ccc(OCc2ccccc2)c(OC)c1 (stereo not drawn) from this test.
inactive

I'd appreciate the recorded outcome for COc1ccc(-c2ccc(NNC(=O)c3ccc(F)cc3)nn2)cc1OC from this test.
inactive

I'd appreciate the recorded outcome for CCN(CC)c1ccc2cc(C(Nc3ccc(Cl)cc3)c3nnnn3C(C)(C)C)c(=O)oc2c1 (stereo not drawn) from this test.
inactive
